tested on: MDA-MB-468 breast; test: NCI-60 one-dose screen, 48 h (100 = growth as untreated, 0 = no growth, -100 = all killed); conditions: 10 µM unless noted
About 83,000 compounds went through this panel and 20% of them were active in at least one assay; those are over-represented in the sample as a whole.
# growth per record follows
Give the number; % is assumed, so skip it.

Q: # growth lookup, item COc1cc2cc(Oc3ccc(NC(=O)Nc4ccc(Cl)c(C(F)(F)F)c4)cc3)c(C)nc2cc1OCCN1CCCCC1
Ans: -72.3

Q: # growth lookup, item O=C(Nc1ccc2[nH]ncc2c1)c1csc(Nc2ccccc2)n1
Ans: 14.4

More entries:
Q: # growth lookup, item CC1(C)CC([P+](c2ccccc2)(c2ccccc2)c2ccccc2)=NN1
Ans: -12.9

Q: # growth lookup, item Cn1c(SCC(=O)c2cccs2)nc2ccccc2c1=O
Ans: 68.7

Q: # growth lookup, item CCN1CCN(CC(=O)N2c3cccc4cccc(c34)N(C(=O)CN3CCN(CC)CC3)C2c2cn(-c3ccccc3)nc2-c2cccc([N+](=O)[O-])c2)CC1
Ans: -47.8

Q: # growth lookup, item O=C(OCc1ccc2c(Br)cc(Br)c(O)c2n1)N1CCN(C(=O)c2cc3ccccc3[nH]2)CC1
Ans: 21.9

Q: # growth lookup, item COc1ccc(C/C(C)=C(/c2ccc(OCCN3CCCCCC3)cc2)c2ccc(OC(=O)NCc3ccccc3)cc2)cc1
Ans: 83

Q: # growth lookup, item C=CCn1c(SCC(=O)Nc2ccc(C(=O)/C=C/c3cc4cc(OC)ccc4nc3Cl)cc2)nnc1-c1ccc(Br)cc1
Ans: 85.7

Q: # growth lookup, item O=C(CCCCCn1c2ccccc2c2c3c(c4c5ccccc5[nH]c4c21)C(=O)N(O)C3=O)N1CCOCC1
Ans: 3.68

Q: # growth lookup, item COC(=O)c1ccc(NC(N)=NCCC(C)(C)c2ccc(C(F)(F)F)cc2)nc1
Ans: -14.2

Q: # growth lookup, item COC(=O)CCC1=C(C)C(C)=N/C1=C\c1[nH]c(-c2ccc[nH]2)cc1OC
Ans: 35

Q: # growth lookup, item C=CC(=O)Nc1cc(Nc2nccc(-c3cn(C)c4ccccc34)n2)c(OC)cc1N(C)CCN(C)C
Ans: -74.1

Q: # growth lookup, item Cc1nc2sc(C(=O)Nc3cccc4ccccc34)c(N)c2cc1C(=O)c1ccccc1
Ans: 5.45

Q: # growth lookup, item CCOC(=O)/C(F)=C/C1CC1CCc1cccc(C(F)(F)F)c1 (stereo unspecified)
Ans: 109

Q: # growth lookup, item CC(=O)c1sc(Nc2cccc(Nc3nc(C)c(C)s3)c2)nc1C
Ans: 55

Q: # growth lookup, item CNCCCn1c2c(c3ccc([N+](=O)[O-])cc3c1=O)C(=O)c1cc(OC)cnc1-2
Ans: -39.5

Q: # growth lookup, item CC(=O)OC1CCC2(C)C(CCC3C4CC=C(C(C)=O)C4(C)OC(=O)CC32)C1 (stereo unspecified)
Ans: -72.4

====

tested on: LOX IMVI melanoma; assay: NCI-60 one-dose screen, 48 h (100 = growth as untreated, 0 = no growth, -100 = all killed); conditions: 10 µM
This is part of a sample that, as a whole, favours compounds with a hit. Of some 83,000 tested, about 20% had one in any assay.
Returns: string. Value is MET if measured growth is below -60%, and NOT MET if it is greater than or equal to it.

Here are 5 compounds together with their reported answers.
Q: Given Nc1nnc(-c2c[nH]c3ncc(Br)cc23)c(-c2c[nH]c3ccc(Br)cc23)n1 , is recorded growth strictly lower than -60%?
Ans: NOT MET

Q: Given Cn1cc(-c2nnc(N)nc2-c2c[nH]c3ccc(F)cc23)c2cc(Br)cnc21 , is recorded growth strictly lower than -60%?
Ans: NOT MET

Q: Given COc1cc(C2CC(c3ccccc3)=Nc3c(N)nc(N)nc3N2)ccc1Oc1nc(NCCO)nc(N2CCOCC2)n1 (centres undefined) , is recorded growth strictly lower than -60%?
Ans: NOT MET

Q: Given O=C(CSc1nc2ccccc2c(=O)n1-c1ccc(Cl)cc1)Nc1ccc(-c2nc3ccccc3[nH]2)cc1 , is recorded growth strictly lower than -60%?
Ans: MET

Q: Given COc1ccc(Cc2nn(CC(=O)N/N=C/c3ccc(Br)cc3)c(=O)c3c(C)noc23)cc1 , is recorded growth strictly lower than -60%?
Ans: NOT MET

More entries:
Q: Given O=C(c1ccccc1)c1ccc2nc(-c3ccccc3Br)[nH]c2c1 , is recorded growth strictly lower than -60%?
Ans: MET

Q: Given CCOC(=O)C1=C(N)N(c2ccc(C)cc2)C2=C(C(=O)CC(C)(C)C2)C1c1ccccc1Br (centres undefined) , is recorded growth strictly lower than -60%?
Ans: NOT MET

Q: Given Cn1cc(/C=C(/SS/C(=C/c2cn(C)c3cccc(C(=O)O)c23)C(=O)O)C(=O)O)c2c(C(=O)O)cccc21 , is recorded growth strictly lower than -60%?
Ans: NOT MET

Q: Given O=C(Nc1ccc(OCc2ccc(Cl)cc2)cc1)Nc1ccc(Cl)c(C(F)(F)F)c1 , is recorded growth strictly lower than -60%?
Ans: MET
